Measured values drawn from patent US4684664A for this set.

system: Staphylococcus aureus FDA 209PJc-1; experiment: Antibacterial activity, agar-dilution MIC, organism No. 1; format: cell-based; settings: Staphylococcus aureus, FDA209PJC1; Organism No. 1, bouillon-agar; read-out: Minimum Inhibitory Concentration

{"COMPOUND": "[C-]#[N+]C12CC3(/C=C/C(=O)Nc4ccc(OCCC)cc4)OC3C1O2 (stereo not shown)", "LIMIT_QUALIFIER": "=", "MIC [mg/L]": 0.78}
{"COMPOUND": "[C-]#[N+]C12CC3(/C=C/C(=O)Nc4cccc(Cl)c4)OC3C1O2 (stereo not shown)", "LIMIT_QUALIFIER": "=", "MIC [mg/L]": 0.2}
{"COMPOUND": "[C-]#[N+]C12CC3(/C=C/C(=O)OCc4ccc([N+](=O)[O-])cc4)OC3C1O2 (stereo not shown)", "LIMIT_QUALIFIER": "=", "MIC [mg/L]": 25}
{"COMPOUND": "[C-]#[N+]C12CC3(/C=C/C(=O)Nc4ccccc4)OC3C1O2 (stereo not shown)", "LIMIT_QUALIFIER": "=", "MIC [mg/L]": 0.39}
{"COMPOUND": "[C-]#[N+]C12CC3(/C=C/C(=O)Nc4ccc(C(C)=O)cc4)OC3C1O2 (stereo not shown)", "LIMIT_QUALIFIER": "=", "MIC [mg/L]": 0.39}
{"COMPOUND": "[C-]#[N+]C12CC3(/C=C/C(=O)Nc4cccc(C(F)(F)F)c4)OC3C1O2 (stereo not shown)", "LIMIT_QUALIFIER": "<", "MIC [mg/L]": 0.05}
{"COMPOUND": "[C-]#[N+]C12CC3(/C=C/C(=O)Nc4ccc(Br)cc4)OC3C1O2 (stereo not shown)", "LIMIT_QUALIFIER": "=", "MIC [mg/L]": 0.39}
{"COMPOUND": "[C-]#[N+]C12CC3(/C=C/C(=O)Nc4ccc(C(=O)OC)cc4)OC3C1O2 (stereo not shown)", "LIMIT_QUALIFIER": "<", "MIC [mg/L]": 0.05}
{"COMPOUND": "[C-]#[N+]C12CC3(/C=C/C(=O)OCC)OC3C1O2 (stereo not drawn) [Compound No. 2, ethyl β-substituted acrylate]", "LIMIT_QUALIFIER": "=", "MIC [mg/L]": 12.5}
{"COMPOUND": "[C-]#[N+]C12CC3(/C=C/C(=O)Nc4ccc(S(N)(=O)=O)cc4)OC3C1O2 (stereo not shown)", "LIMIT_QUALIFIER": "=", "MIC [mg/L]": 3.13}
{"COMPOUND": "[C-]#[N+]C12CC3(/C=C/C(=O)N4CCCC4)OC3C1O2 (stereo not shown)", "LIMIT_QUALIFIER": "=", "MIC [mg/L]": 50}
{"COMPOUND": "[C-]#[N+]C12CC3(/C=C/C(=O)Nc4ccc(I)cc4)OC3C1O2 (stereo not shown)", "LIMIT_QUALIFIER": "=", "MIC [mg/L]": 12.5}
{"COMPOUND": "[C-]#[N+]C12CC3(/C=C/C(=O)ON4C(=O)CCC4=O)OC3C1O2 (stereo not shown)", "LIMIT_QUALIFIER": "=", "MIC [mg/L]": 50}
{"COMPOUND": "[C-]#[N+]C12CC3(/C=C/C(=O)N4CCOCC4)OC3C1O2 (stereo not shown)", "LIMIT_QUALIFIER": "=", "MIC [mg/L]": 50}
{"COMPOUND": "[C-]#[N+]C12CC3(/C=C/C(=O)Nc4cccc(C(=O)OC)c4)OC3C1O2 (stereo not shown)", "LIMIT_QUALIFIER": "=", "MIC [mg/L]": 0.2}
{"COMPOUND": "[C-]#[N+]C12CC3(/C=C/C(=O)OCC(=O)c4cccc(OC)c4)OC3C1O2 (stereo not shown)", "LIMIT_QUALIFIER": "=", "MIC [mg/L]": 0.39}
{"COMPOUND": "[C-]#[N+]C12CC3(/C=C/C(=O)Nc4cccc([N+](=O)[O-])c4)OC3C1O2 (stereo not shown)", "LIMIT_QUALIFIER": "=", "MIC [mg/L]": 0.2}
{"COMPOUND": "[C-]#[N+]C12CC3(/C=C/C(=O)Nc4cccc(OC)c4)OC3C1O2 (stereo not shown)", "LIMIT_QUALIFIER": "=", "MIC [mg/L]": 0.39}
{"COMPOUND": "[C-]#[N+]C12CC3(/C=C/C(=O)Nc4ccccc4O)OC3C1O2 (stereo not shown)", "LIMIT_QUALIFIER": "=", "MIC [mg/L]": 3.13}
{"COMPOUND": "[C-]#[N+]C12CC3(/C=C/C(=O)OCC(=O)c4ccc(Cl)cc4)OC3C1O2 (stereo not shown)", "LIMIT_QUALIFIER": "=", "MIC [mg/L]": 0.05}
{"COMPOUND": "[C-]#[N+]C12CC3(/C=C/C(=O)N[C@@H](C(=O)OCc4ccccc4)C(C)C)OC3C1O2 (stereo partly shown)", "LIMIT_QUALIFIER": ">", "MIC [mg/L]": 200}
{"COMPOUND": "[C-]#[N+]C12CC3(/C=C/C(=O)Nc4ccc(C)cc4)OC3C1O2 (stereo not shown)", "LIMIT_QUALIFIER": "=", "MIC [mg/L]": 0.39}
{"COMPOUND": "[C-]#[N+]C12CC3(/C=C/C(=O)Nc4ccc(N)cc4)OC3C1O2 (stereo not shown)", "LIMIT_QUALIFIER": "=", "MIC [mg/L]": 6.25}
{"COMPOUND": "[C-]#[N+]C12CC3(/C=C/C(=O)Nc4cccc(O)c4)OC3C1O2 (stereo not shown)", "LIMIT_QUALIFIER": "=", "MIC [mg/L]": 1.56}
{"COMPOUND": "[C-]#[N+]C12CC3(/C=C/C(=O)Nc4ccc(C(=O)c5ccccc5)cc4)OC3C1O2 (stereo not shown)", "LIMIT_QUALIFIER": "=", "MIC [mg/L]": 0.39}
{"COMPOUND": "[C-]#[N+]C12CC3(/C=C/C(=O)Nc4ccccc4N)OC3C1O2 (stereo not shown)", "LIMIT_QUALIFIER": "=", "MIC [mg/L]": 3.13}
{"COMPOUND": "[C-]#[N+]C12CC3(/C=C/C(=O)Nc4ccccc4Cl)OC3C1O2 (stereo not shown)", "LIMIT_QUALIFIER": "=", "MIC [mg/L]": 0.39}
{"COMPOUND": "[C-]#[N+]C12CC3(/C=C/C(=O)OC)OC3C1O2 (stereo not shown)", "LIMIT_QUALIFIER": "=", "MIC [mg/L]": 12.5}
{"COMPOUND": "[C-]#[N+]C12CC3(/C=C/C(=O)Nc4nnc(C)s4)OC3C1O2 (stereo not shown)", "LIMIT_QUALIFIER": "=", "MIC [mg/L]": 1.56}
{"COMPOUND": "[C-]#[N+]C12CC3(/C=C/C(=O)Nc4ccc(C(=O)O)cc4)OC3C1O2 (stereo not shown)", "LIMIT_QUALIFIER": "=", "MIC [mg/L]": 12.5}
{"COMPOUND": "[C-]#[N+]C12CC3(/C=C/C(=O)NC4CCCCC4)OC3C1O2 (stereo not shown)", "LIMIT_QUALIFIER": "=", "MIC [mg/L]": 1.56}
{"COMPOUND": "[C-]#[N+]C12CC3(/C=C/C(=O)OCc4cc([N+](=O)[O-])ccc4OC)OC3C1O2 (stereo not shown)", "LIMIT_QUALIFIER": "=", "MIC [mg/L]": 6.25}
{"COMPOUND": "[C-]#[N+]C12CC3(/C=C/C(=O)NC4=NCCS4)OC3C1O2 (stereo not shown)", "LIMIT_QUALIFIER": "=", "MIC [mg/L]": 12.5}
{"COMPOUND": "[C-]#[N+]C12CC3(/C=C/C(=O)Nc4cccc(C(=O)O)c4)OC3C1O2 (stereo not shown)", "LIMIT_QUALIFIER": "=", "MIC [mg/L]": 12}

----------
tested on: Escherichia coli K12 C600 IAM 1264; assay: Antibacterial activity, agar-dilution MIC, organism No. 6; type: cell-based; details: Escherichia coli, IAM1264; Organism No. 6, bouillon-agar; read-out: Minimum Inhibitory Concentration
MEASUREMENT_TYPE: MIC

{"COMPOUND": "[C-]#[N+]C12CC3(/C=C/C(=O)Nc4ccc(Cl)cc4)OC3C1O2 (stereo not shown)", "ASSAYED_SYSTEM": "Escherichia coli K12 C600 IAM 1264", "RESULT": "> 200 µg/mL"}
{"COMPOUND": "[C-]#[N+]C12CC3(/C=C/C(=O)N[C@@H](CC(=O)OCc4ccccc4)C(=O)OCc4ccccc4)OC3C1O2 (stereo partly shown)", "ASSAYED_SYSTEM": "Escherichia coli K12 C600 IAM 1264", "RESULT": "> 200 µg/mL"}
{"COMPOUND": "[C-]#[N+]C12CC3(/C=C/C(=O)OCC(=O)c4ccc(Br)cc4)OC3C1O2 (stereo not shown) [Compound No. 4, p-bromophenacylβ-substituted acrylate]", "ASSAYED_SYSTEM": "Escherichia coli K12 C600 IAM 1264", "RESULT": "< 0.05 µg/mL"}
{"COMPOUND": "[C-]#[N+]C12CC3(/C=C/C(=O)Nc4ccc5c(c4)CCC5)OC3C1O2 (stereo not shown)", "ASSAYED_SYSTEM": "Escherichia coli K12 C600 IAM 1264", "RESULT": "> 200 µg/mL"}
{"COMPOUND": "[C-]#[N+]C12CC3(/C=C/C(=O)Nc4cccc(C(=O)OC)c4)OC3C1O2 (stereo not shown)", "ASSAYED_SYSTEM": "Escherichia coli K12 C600 IAM 1264", "RESULT": "> 200 µg/mL"}
{"COMPOUND": "[C-]#[N+]C12CC3(/C=C/C(=O)OCC(=O)c4ccc(Cl)cc4)OC3C1O2 (stereo not shown)", "ASSAYED_SYSTEM": "Escherichia coli K12 C600 IAM 1264", "RESULT": "< 0.05 µg/mL"}
{"COMPOUND": "[C-]#[N+]C12CC3(/C=C/C(=O)N[C@@H](CCC(=O)OCc4ccccc4)C(=O)OCc4ccccc4)OC3C1O2 (stereo partly shown)", "ASSAYED_SYSTEM": "Escherichia coli K12 C600 IAM 1264", "RESULT": "> 200 µg/mL"}
